Biological target: RAF proto-oncogene serine/threonine-protein kinase (Homo sapiens, UniProt P04049)
Sequence (P04049 whole entry): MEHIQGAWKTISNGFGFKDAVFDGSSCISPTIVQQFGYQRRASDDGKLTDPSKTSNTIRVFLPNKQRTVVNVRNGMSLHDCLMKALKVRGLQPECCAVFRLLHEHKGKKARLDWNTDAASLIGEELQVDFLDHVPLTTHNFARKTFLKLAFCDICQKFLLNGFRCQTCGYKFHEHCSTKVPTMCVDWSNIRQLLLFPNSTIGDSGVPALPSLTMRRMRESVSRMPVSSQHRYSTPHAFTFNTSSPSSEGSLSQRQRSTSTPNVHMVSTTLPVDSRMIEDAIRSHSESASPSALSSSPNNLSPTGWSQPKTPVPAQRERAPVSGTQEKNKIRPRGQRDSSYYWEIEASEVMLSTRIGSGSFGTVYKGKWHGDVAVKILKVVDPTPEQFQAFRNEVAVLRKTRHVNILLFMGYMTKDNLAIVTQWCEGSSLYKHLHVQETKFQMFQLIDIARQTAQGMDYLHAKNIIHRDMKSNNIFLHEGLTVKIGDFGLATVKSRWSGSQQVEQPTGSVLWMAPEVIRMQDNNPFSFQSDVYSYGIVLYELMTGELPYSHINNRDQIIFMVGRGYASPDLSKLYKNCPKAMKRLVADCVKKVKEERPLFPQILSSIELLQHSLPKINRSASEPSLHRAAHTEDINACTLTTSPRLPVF

- RECORD SMILES: "Cc1cccc(C)c1/C=C/n1cnc2c(Nc3ccc(P(C)(C)=O)cc3)ncnc21"
  IC50: "21 nM"

---

Target: Mast/stem cell growth factor receptor Kit (Homo sapiens)
Sequence (P10721 whole entry): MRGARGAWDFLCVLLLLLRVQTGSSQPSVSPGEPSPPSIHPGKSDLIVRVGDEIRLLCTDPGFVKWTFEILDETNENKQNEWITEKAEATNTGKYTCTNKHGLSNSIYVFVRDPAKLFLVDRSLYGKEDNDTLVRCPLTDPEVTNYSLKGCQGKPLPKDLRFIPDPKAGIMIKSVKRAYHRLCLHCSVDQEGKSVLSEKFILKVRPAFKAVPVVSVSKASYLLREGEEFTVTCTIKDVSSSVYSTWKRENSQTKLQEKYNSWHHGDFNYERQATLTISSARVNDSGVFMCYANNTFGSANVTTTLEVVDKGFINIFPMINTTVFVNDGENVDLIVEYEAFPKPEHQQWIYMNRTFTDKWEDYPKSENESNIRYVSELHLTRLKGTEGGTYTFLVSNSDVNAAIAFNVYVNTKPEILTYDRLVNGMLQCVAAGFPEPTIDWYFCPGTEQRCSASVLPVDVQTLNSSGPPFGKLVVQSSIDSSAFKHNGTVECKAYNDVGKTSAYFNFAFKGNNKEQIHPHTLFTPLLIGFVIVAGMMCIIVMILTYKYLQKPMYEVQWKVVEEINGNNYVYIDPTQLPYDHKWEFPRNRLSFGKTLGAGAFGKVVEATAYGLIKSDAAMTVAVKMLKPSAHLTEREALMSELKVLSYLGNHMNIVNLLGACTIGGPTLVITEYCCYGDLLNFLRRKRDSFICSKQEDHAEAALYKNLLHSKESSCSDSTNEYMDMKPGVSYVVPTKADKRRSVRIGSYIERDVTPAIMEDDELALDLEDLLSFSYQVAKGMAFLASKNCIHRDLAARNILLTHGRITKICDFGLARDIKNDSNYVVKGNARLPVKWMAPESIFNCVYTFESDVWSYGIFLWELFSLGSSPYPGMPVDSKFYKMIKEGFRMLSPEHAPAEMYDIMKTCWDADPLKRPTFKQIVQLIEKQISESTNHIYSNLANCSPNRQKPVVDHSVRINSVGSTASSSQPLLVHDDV
Assay: Inhibition of Kit
pIC50: −log10 of the molar value.
MEASUREMENT TYPE: pIC50

- RECORD SMILES: "Cc1cccc(C)c1/C=C/n1cnc2c(Nc3ccc(P(C)(C)=O)cc3)ncnc21"
  VALUE: 6.38

---

Target: Insulin receptor (Homo sapiens, UniProt P06213)
Sequence (P06213 28-758 limits assumed): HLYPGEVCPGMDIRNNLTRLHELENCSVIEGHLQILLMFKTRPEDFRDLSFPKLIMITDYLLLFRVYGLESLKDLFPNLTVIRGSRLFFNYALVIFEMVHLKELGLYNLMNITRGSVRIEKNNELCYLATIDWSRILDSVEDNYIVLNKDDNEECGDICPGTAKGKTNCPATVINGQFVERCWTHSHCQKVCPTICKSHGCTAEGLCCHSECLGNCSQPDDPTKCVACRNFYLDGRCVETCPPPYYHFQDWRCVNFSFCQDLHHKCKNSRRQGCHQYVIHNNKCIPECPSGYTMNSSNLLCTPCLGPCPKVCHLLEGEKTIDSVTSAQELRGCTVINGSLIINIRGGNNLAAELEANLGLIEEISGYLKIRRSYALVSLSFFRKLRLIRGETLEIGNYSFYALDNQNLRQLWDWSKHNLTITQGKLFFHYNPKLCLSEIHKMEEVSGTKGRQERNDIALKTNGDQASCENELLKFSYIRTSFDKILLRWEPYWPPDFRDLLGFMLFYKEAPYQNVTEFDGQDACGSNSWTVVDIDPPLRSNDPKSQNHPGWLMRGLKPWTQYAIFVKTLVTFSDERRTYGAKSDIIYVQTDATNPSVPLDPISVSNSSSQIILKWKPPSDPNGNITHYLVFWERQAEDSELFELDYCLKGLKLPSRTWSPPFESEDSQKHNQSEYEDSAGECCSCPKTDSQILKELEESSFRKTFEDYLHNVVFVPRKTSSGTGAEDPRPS
Sequence (P06213 763-1382 limits assumed): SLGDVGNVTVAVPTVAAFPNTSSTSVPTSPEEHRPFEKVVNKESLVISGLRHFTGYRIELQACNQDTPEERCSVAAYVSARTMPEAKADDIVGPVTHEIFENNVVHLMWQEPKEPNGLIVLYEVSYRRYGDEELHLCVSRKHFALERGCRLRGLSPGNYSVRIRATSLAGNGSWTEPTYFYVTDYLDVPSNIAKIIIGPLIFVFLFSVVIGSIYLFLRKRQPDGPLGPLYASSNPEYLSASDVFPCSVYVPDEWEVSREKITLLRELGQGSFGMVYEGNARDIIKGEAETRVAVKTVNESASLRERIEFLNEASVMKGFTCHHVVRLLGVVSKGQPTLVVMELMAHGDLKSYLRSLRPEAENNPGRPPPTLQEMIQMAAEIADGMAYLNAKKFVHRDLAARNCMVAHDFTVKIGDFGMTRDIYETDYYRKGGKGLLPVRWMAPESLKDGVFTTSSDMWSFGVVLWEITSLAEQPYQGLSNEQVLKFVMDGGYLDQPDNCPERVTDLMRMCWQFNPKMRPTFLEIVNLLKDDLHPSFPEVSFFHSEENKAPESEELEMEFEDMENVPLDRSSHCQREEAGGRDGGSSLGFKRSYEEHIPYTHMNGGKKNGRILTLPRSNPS

- RECORD SMILES: "Cc1cccc(C)c1/C=C/n1cnc2c(Nc3ccc(P(C)(C)=O)cc3)ncnc21"
  IC50: "> 1 µM"

---

Examples of compounds with documented Cmax follow.
Experiment: Cmax in rat at 5 mg/kg, po
Type: ADME, organism-based
Set-up: dose 5 mg/kg, route oral
Details: in vivo
MEASUREMENT TYPE: Cmax (ng/mL)

- RECORD SMILES: "Cc1cccc(C)c1/C=C/n1cnc2c(Nc3ccc(P(C)(C)=O)cc3)nc(C(C)C)nc21"
  MEASUREMENT TYPE: "Cmax"
  SCALE UNIT: "ng/mL"
  VALUE: 478
- RECORD SMILES: "Cc1cccc(C)c1/C=C/n1cnc2c(Nc3ccc(P(C)(C)=O)cc3)ncnc21"
  MEASUREMENT TYPE: "Cmax"
  SCALE UNIT: "ng/mL"
  VALUE: 1280
- RECORD SMILES: "Cc1cccc(Cl)c1/C=C/n1cnc2c(Nc3ccc(P(C)(C)=O)cc3)ncnc21"
  MEASUREMENT TYPE: "Cmax"
  SCALE UNIT: "ng/mL"
  VALUE: 1680
- RECORD SMILES: "Cc1ccc2[nH]ncc2c1/C=C/n1cnc2c(Nc3ccc(P(C)(C)=O)cc3)ncnc21"
  MEASUREMENT TYPE: "Cmax"
  SCALE UNIT: "ng/mL"
  VALUE: 22

---

Target: Platelet-derived growth factor receptor alpha (Homo sapiens, UniProt P16234)
Sequence (P16234 whole entry): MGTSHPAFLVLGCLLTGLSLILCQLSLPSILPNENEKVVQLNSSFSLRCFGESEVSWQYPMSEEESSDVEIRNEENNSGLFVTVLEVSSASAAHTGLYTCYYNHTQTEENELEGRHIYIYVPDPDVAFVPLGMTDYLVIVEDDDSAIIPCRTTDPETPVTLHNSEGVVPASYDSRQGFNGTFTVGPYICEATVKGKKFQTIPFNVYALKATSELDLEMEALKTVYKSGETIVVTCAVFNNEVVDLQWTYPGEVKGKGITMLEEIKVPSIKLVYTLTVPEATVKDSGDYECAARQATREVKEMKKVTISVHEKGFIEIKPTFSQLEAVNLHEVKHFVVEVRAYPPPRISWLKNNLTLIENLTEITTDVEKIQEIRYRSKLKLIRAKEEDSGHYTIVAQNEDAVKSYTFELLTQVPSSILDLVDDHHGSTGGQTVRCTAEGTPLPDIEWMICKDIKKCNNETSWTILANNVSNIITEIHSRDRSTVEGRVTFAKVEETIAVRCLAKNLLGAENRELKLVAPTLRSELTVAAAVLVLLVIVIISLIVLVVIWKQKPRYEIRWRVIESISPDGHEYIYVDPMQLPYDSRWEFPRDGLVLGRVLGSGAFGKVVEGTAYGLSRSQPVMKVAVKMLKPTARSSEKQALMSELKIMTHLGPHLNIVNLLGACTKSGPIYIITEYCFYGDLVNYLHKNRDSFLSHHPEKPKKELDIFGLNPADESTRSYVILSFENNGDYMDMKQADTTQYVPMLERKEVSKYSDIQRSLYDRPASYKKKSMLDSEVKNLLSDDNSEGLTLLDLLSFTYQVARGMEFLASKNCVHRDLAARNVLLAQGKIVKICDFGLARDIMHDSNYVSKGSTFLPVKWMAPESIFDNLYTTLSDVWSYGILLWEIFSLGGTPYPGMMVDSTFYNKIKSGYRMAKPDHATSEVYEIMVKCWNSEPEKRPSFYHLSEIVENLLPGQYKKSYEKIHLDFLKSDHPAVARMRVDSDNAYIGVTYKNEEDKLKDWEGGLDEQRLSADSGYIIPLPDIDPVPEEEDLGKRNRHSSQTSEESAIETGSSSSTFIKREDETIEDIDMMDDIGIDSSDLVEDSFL

- RECORD SMILES: "Cc1cccc(C)c1/C=C/n1cnc2c(Nc3ccc(P(C)(C)=O)cc3)ncnc21"
  SUBJECT OF TEST: "Platelet-derived growth factor receptor alpha (Homo sapiens, UniProt P16234)"
  IC50 [nM]: 221

---

Target: Macrophage colony-stimulating factor 1 receptor (Homo sapiens)
Sequence (P07333 whole entry): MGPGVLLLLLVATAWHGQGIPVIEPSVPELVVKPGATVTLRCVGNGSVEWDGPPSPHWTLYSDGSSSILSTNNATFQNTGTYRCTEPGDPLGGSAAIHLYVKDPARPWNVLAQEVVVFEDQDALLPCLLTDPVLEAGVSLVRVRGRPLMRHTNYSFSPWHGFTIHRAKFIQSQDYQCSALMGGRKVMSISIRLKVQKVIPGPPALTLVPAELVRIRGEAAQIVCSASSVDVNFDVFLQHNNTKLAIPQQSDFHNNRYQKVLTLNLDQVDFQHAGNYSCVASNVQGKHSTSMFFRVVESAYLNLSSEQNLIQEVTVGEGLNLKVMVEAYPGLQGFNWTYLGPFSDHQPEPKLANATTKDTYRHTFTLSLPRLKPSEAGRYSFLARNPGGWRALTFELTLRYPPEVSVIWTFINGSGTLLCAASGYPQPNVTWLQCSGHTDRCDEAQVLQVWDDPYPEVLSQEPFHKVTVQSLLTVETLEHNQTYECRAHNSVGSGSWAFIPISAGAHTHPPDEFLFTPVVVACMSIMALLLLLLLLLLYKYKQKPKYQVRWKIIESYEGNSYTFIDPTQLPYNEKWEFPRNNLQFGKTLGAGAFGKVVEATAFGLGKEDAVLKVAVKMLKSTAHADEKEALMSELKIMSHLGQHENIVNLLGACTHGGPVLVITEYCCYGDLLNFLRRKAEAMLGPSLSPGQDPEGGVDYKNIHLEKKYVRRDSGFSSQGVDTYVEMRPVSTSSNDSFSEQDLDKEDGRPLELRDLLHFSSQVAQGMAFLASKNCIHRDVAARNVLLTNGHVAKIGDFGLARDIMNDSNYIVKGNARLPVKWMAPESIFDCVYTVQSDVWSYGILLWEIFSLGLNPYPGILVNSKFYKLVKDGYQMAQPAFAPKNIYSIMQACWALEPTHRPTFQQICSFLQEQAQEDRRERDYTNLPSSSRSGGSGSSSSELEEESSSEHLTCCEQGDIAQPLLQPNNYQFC

- RECORD SMILES: "Cc1cccc(C)c1/C=C/n1cnc2c(Nc3ccc(P(C)(C)=O)cc3)ncnc21"
  IC50 / nM: 3

---

Test: Half life in rat at 5 mg/kg, po
Format: ADME, organism-based
Design: dose 5 mg/kg, route oral
Conditions: in vivo
Examples of compounds with documented half-life follow.

- RECORD SMILES: "Cc1cccc(C)c1/C=C/n1cnc2c(Nc3ccc(P(C)(C)=O)cc3)nc(C(C)C)nc21"
  half-life [h]: 5.1
- RECORD SMILES: "Cc1cccc(Cl)c1/C=C/n1cnc2c(Nc3ccc(P(C)(C)=O)cc3)ncnc21"
  half-life [h]: 3.3
- RECORD SMILES: "Cc1cccc(C)c1/C=C/n1cnc2c(Nc3ccc(P(C)(C)=O)cc3)ncnc21"
  half-life [h]: 5

---

Experiment: Oral bioavailability in rat at 5 mg/kg
Format: ADME, organism-based
Details: in vivo

- RECORD SMILES: "Cc1ccc2[nH]ncc2c1/C=C/n1cnc2c(Nc3ccc(P(C)(C)=O)cc3)ncnc21"
  bioavailability (%): 0
- RECORD SMILES: "Cc1cccc(C)c1/C=C/n1cnc2c(Nc3ccc(P(C)(C)=O)cc3)nc(C(C)C)nc21"
  bioavailability (%): 25
- RECORD SMILES: "Cc1cccc(C)c1/C=C/n1cnc2c(Nc3ccc(P(C)(C)=O)cc3)ncnc21"
  bioavailability (%): 20
- RECORD SMILES: "CCCP(=O)(CCC)c1ccc(Nc2ncnc3c2ncn3/C=C/c2c(C)cccc2C)cc1"
  bioavailability (%): 0
- RECORD SMILES: "Cc1cccc(Cl)c1/C=C/n1cnc2c(Nc3ccc(P(C)(C)=O)cc3)ncnc21"
  bioavailability (%): 17
